assay.summary: Cytotoxicity against C57BL/10ScSn mouse bone marrow-derived macrophages
Type: cell-based, Macrophage
reported.endpoint: CC50

In [3]: df
Out[3]:
                              smiles_string  reported_endpoint      result
0  C=C[C@]1(C)CC[C@]2(C)[C@@H](C1)C(=O)[C@@H](O)[C@@H]1[C@]3(C)CCC[C@@]12OC3=O               CC50  19.5 µg/mL

Data credit: ChEMBL document CHEMBL1155655
